Overview of recorded log10(Kd) for various variants
B1: NELF-E aptamer (parent)
chain: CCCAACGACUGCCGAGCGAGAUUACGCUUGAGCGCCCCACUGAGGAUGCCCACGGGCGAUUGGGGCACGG

Variants of: B1
Test: HiTS-RAP
Settings: with NELF-E (Drosophila)
Please interpret these as log10 of Kd where Kd is in nM.

Some variants with known log10(Kd) results, for comparison:
CCCAACGACUGACGAGCGAGAGUACGCUUGAGCGCCCCACUGAGGAUGCCCACGGGCGAUUGGGGCACGG [C12A U22G] ... 0.64
CCCAACGACUGCCGAGUGAGAUUACGCUUGGGCGCCCCACUGAGGAUGCCCACGGGCGAUUGGGGCACGG [C17U A31G] ... 0.71

In: What does the record list as log10(Kd) for CCCAACGACUGCGGAGCGAGAUUUCGCUUGAGCGCCCCACUGAGGAUGCCCACGGGCGAUUGGGGCACGG [C13G A24U] ?
Out: 0.89

In: Please answer likewise for CCCAUCGACUGCCGAGCGAGUUUACGCUUGAGCGCCCCACUGAGGAUGCCCACGGGCGAUUGGGGCACGG [A5U A21U]
Out: 0.82

In: Another variant: CCCAACGACUGCGGAGCGAGAUUAUGCUUGAGCGCCCCACUGAGGAUGCCCACGGGCGAUUGGGGCACGG [C13G C25U]
Out: 0.74

In: Next entry: CCCAACGACUGCCUAGCGAGAUUACGCUUGAGCGUCCCACUGAGGAUGCCCACGGGCGAUUGGGGCACGG [G14U C35U]
Out: 1.00

In: How about CCCAAUGACUGCCGAGCGAGAUUACGCUUGAGCGCCCCACUAAGGAUGCCCACGGGCGAUUGGGGCACGG [C6U G42A] ?
Out: 1.72

In: CCCAACGUCUGCCGAGCGAGAUUACGCUUGAGCGCCCCACUGGGGAUGCCCACGGGCGAUUGGGGCACGG [A8U A43G] ?
Out: 1.41

In: Try this variant too: CCCAGCGACUGCCGAGCGAGAUUACGCUAGAGCGCCCCACUGAGGAUGCCCACGGGCGAUUGGGGCACGG [A5G U29A]
Out: 0.78

In: Repeat for the following variant: CCCAGCAACUGCCGAGCGAGAUUACGCUUGAGCGCCCCACUGAGGAUGCCCACGGGCGAUUGGGGCACGG [A5G G7A]
Out: 0.81

In: Please give the result for CCCAACGACUGCCGAGCGAGAGUACGUUUGAGCGCCCCACUGAGGAUGCCCACGGGCGAUUGGGGCACGG [U22G C27U] too.
Out: 0.64

In: And CCCGACGACUGCCGAGCGAGAUUACGCUUGAGCGCCCCACUGAGGAUGCCCACGCGCGAUUGGGGCACGG [A4G G55C] ?
Out: 0.91

In: Same again, this time with CCCAACGACUGCCGAGCGAGAUUACCCUUGAGCGCCCCACUGAGGAUGCCCACGGGCGAUUGGGGCACGG [G26C]
Out: 1.14

In: Likewise for CCCGACGACUGCCGAGCGAGAUUACGCUUGAGCGCCCCGCUGAGGAUGCCCACGGGCGAUUGGGGCACGG [A4G A39G] ?
Out: 1.03

In: # iterate: CCCAACGACUGCCGAGCGAGAUUACGCUGGAGCGCCCCACUGAGGAUGCCCACGGGCGAUUGGCGCACGG [U29G G64C]
Out: 0.71

In: And for CCCAAGGACUGUCGAGCGAGAUUACGCUUGAGCGCCCCACUGAGGAUGCCCACGGGCGAUUGGGGCACGG [C6G C12U] ?
Out: 0.74

In: Check CCCAACGACUGCCGAGCGAGAUGACGCUUGAGCGCCCCGCUGAGGAUGCCCACGGGCGAUUGGGGCACGG [U23G A39G] too.
Out: 0.94

In: One more variant: CCCAACGACUGCCGAGCGAGACUACGCUUGAGCGCCCCACUGAGGAUGCCCACGGGCGAUUGGGGCACGG [U22C]
Out: 0.66

In: Request: CCCAACGACUGCCGAGCGAGAUGACGCUUGAGCGGCCCACUGAGGAUGCCCACGGGCGAUUGGGGCACGG [U23G C35G]
Out: 0.85

In: Also need CCCAACGACUGCCGAGCGAGAUGACGCUUGAGCGCCCCACUAAGGAUGCCCACGGGCGAUUGGGGCACGG [U23G G42A] , thanks.
Out: 1.78

In: Repeat with CCCAACGACUGCCGAGCGAGAUUACGCUGGAGCUCCCCACUGAGGAUGCCCACGGGCGAUUGGGGCACGG [U29G G34U]
Out: 0.76

In: Same read-out for CCCAACGACUGCCGAGCGAGAUUGCGCUUUAGCGCCCCACUGAGGAUGCCCACGGGCGAUUGGGGCACGG [A24G G30U] ?
Out: 0.85
